Target: T1, chicken PD-1 protein (chicken, labeled using the BLUE-NHS protein labeling kit (NanoTemper))
T1 chain: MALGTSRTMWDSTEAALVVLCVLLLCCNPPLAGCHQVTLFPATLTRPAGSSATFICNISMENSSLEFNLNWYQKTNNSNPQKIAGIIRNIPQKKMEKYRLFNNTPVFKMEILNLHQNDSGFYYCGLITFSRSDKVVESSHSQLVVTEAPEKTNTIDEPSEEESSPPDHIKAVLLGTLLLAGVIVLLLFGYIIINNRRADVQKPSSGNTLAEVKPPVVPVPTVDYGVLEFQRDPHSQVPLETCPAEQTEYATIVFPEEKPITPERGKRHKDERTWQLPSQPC
Test: MST
measured metric: pKd
Note: pKd values are expressed as the negative base-10 logarithm of concentration in M.

Documented pKd of DAGLYHCLIEYGGADYKTINLK [peptide gDK2-3] : 8.01
